Cited source for all entries: the supplement of paper PMC8728848

Tested on: Gal(b1-4)GlcNAc(b1-2)Man(a1-3)[GlcNAc(b1-4)][Gal(b1-4)GlcNAc(b1-2)Man(a1-6)]Man(b1-4)GlcNAc(b1-4)GlcNAc
Procedure summary: glycan array binding signal (z-score within array); higher = stronger binding
Experimental context: glycan notation: IUPAC condensed, linker removed
Only a selection was taken, and the strongest signals are over-represented in it overall.
Measured glycan array binding signal (z-score) values are reported for all entries that follow.
// no unit, no text: just the number

Binder	glycan array binding signal (z-score)
AAA (Anguilla anguilla), Q7SIC1 (protein) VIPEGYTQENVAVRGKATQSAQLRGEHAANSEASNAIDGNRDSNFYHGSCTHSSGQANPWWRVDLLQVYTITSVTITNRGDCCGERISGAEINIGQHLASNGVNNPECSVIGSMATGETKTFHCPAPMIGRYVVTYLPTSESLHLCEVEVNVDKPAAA	-0.238
CAA (Caragana arborescens) (protein) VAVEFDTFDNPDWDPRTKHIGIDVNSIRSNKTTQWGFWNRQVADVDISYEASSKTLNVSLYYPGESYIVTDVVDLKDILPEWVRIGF	-0.106

Now for a further binder.
*Q* Which glycan array binding signal (z-score) is reported for this binder? LgFlo1 (Saccharomyces pastorianus), B3IUA8 (protein) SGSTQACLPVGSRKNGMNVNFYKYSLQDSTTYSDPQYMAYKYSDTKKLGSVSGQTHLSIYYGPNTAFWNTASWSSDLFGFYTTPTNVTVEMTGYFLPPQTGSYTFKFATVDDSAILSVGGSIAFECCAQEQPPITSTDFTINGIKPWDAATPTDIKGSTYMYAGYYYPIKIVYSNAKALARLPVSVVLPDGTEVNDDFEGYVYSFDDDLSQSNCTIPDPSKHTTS
*A* -0.121
